Listing of entries alongside the reported MIC.
Tested on: Staphylococcus aureus FDA 209P
Give your result in µg/mL as a bare value.

Would you please look over these solved cases?
COc1c(N2CCC(N)(CN)CC2)c(F)cc2c(=O)c(C(=O)O)cn(C3CC3)c12 [Comp. Ex. 1, reference compound]	0.1
CC1COc2c(N3CCN(C)CC3)c(F)cc3c(=O)c(C(=O)O)cn1c23 (stereo not drawn) [Comp. Ex. 2, reference compound]	0.2

Here is another compound to look at.
Tell me the measured MIC of COc1c(N2CC[C@@](CN)(CF)C2)c(F)cc2c(=O)c(C(=O)O)cn(C3CC3)c12 , please. 0.012
